target or test system: human A2B receptors (Homo sapiens, UniProt P29275)
Construct: expressed in transfected cells; host or cells: HEK293
Sequence (P29275 whole entry): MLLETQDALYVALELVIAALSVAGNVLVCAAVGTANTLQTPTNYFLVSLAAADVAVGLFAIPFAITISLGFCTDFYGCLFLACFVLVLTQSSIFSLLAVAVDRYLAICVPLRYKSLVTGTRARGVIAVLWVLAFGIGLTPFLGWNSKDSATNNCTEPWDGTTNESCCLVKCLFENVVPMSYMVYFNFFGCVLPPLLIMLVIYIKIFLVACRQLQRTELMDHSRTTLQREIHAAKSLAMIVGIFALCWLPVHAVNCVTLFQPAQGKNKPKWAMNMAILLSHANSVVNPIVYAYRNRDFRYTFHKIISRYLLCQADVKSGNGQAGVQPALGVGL
procedure details: Functional human A2B receptor activity, recombinant HEK293 cells, cAMP (HTRF)
Type: cell-based
condition parameters: read-out: A2B (Category)
pIC50: −log10 of the molar value.
The entries below are paired with their reported pIC50.

smiles text: O=C(c1cc2c(cn1)c(-c1cnc3cc(Cl)c(F)cn13)nn2CC(F)(F)F)N1CCCCCC1
target or test system: human A2B receptors (Homo sapiens, UniProt P29275)
pIC50: > 7.00
//
smiles text: CS(=O)(=O)Cn1nc(-c2cnc3c(F)cc(F)cn23)c2cnc(C(=O)N3CCCOCC3)cc21
target or test system: human A2B receptors (Homo sapiens, UniProt P29275)
pIC50: > 7.00

Task: # pIC50 lookup, item `CCN(C(=O)c1cc2c(cn1)c(-c1coc3ccccc13)nn2CC(F)(F)F)C(C)C`
Output: > 6.00

Task: Requested field: pIC50. Item: `O=C(c1cc2c(cn1)c(-c1c[nH]c3ccccc13)nn2CC(F)(F)F)N1CCCCCC1`
Output: > 7.00

---

target or test system: human A2B receptors (Homo sapiens)
Construct: expressed in transfected cells; host or cells: HEK293
procedure details: Functional human A2B receptor activity, recombinant HEK293 cells, cAMP (HTRF)
Assay type: cell-based
condition parameters: recombinant HEK293 cells expressing human A2B receptor, agonist NECA, cAMP HTRF, 15 min incubation; read-out: A2B (Category)
measurement kind: IC50

Task: Any idea what its IC50 is? The compound is O=C(c1cc2c(cn1)c(-c1cnc3c(F)cc(F)cn13)nn2CC(F)(F)F)N1C2CCC1CC(O)C2 (stereo not shown)
Output: < 1000 nM

Task: Can you look up the measured IC50 of CC1(O)C2CCC1CN(C(=O)c1cc3c(cn1)c(-c1coc4ccccc14)nn3CS(C)(=O)=O)C2 (stereo not shown) for me?
Output: < 100 nM

Task: Requested read-out: IC50. Entry: O=C(c1cc2c(cn1)c(-c1cnc3c(F)cc(F)cn13)nn2CC(F)(F)F)N1CC2CCC(C1)C2O (stereo not shown)
Output: < 1000 nM

Task: Could you share which IC50 value was measured for O=C(c1cc2c(cn1)c(-c1cnc3c(F)cc(F)cn13)nn2CC(F)(F)F)N1CC2COCC2C1 (stereo not shown) ?
Output: < 1000 nM

---

Measured IC50 accompanies every entry in the list below.
target or test system: human A2B receptors (Homo sapiens)
Construct: expressed in transfected cells; host or cells: HEK293
procedure details: Functional human A2B receptor activity, recombinant HEK293 cells, cAMP (HTRF)
Type: cell-based
condition parameters: read-out: A2B (Category)

compound: O=C(c1cc2c(cn1)c(-c1cnc3c(F)cc(F)cn13)nn2CC(F)(F)F)N1CCCCC(O)C1 (racemic)
IC50: < 1000 nM

compound: CN(CCNC(=O)OC(C)(C)C)C(=O)c1cc2c(cn1)c(-c1cnc3c(F)cc(F)cn13)nn2CC(F)(F)F
IC50: < 1000 nM

compound: CS(=O)(=O)Cn1nc(-c2coc3ccccc23)c2cnc(C(=O)N3CCCC(F)(F)C3)cc21
IC50: < 100 nM

Task: Observed IC50 on human A2B receptors (Homo sapiens) for `O=C(c1cc2c(cn1)c(-c1coc3ccccc13)nn2CC(F)(F)F)N1[C@@H]2CC[C@H]1C[C@@H](O)C2` , please.
Output: < 100 nM

Task: Observed IC50 on human A2B receptors (Homo sapiens) for `O=C(c1cc2c(cn1)c(-c1coc3ccc(F)cc13)nn2CC(F)(F)F)N1CC2CCC(C1)O2` , please.
Output: < 100 nM

---

target or test system: human A2B receptors (Homo sapiens)
Construct: expressed in transfected cells; host or cells: HEK293
procedure details: Functional human A2B receptor activity, recombinant HEK293 cells, cAMP (HTRF)
Type: cell-based
condition parameters: read-out: A2B (Category)
Each entry below carries its recorded IC50.

Examples with their reported IC50 follow.
molecule: [2H]C1([2H])COCCN(C(=O)c2cc3c(cn2)c(-c2coc4ccccc24)nn3CC(F)(F)F)C1 [Compound 229]
target or test system: human A2B receptors (Homo sapiens)
IC50: < 0.1 µM

molecule: O=C(c1cc2c(cn1)c(-c1cnc3c(F)cc(F)cn13)nn2CC(F)(F)F)N1CC2CCC(C1)C2O (stereo not shown) [Compound 170]
target or test system: human A2B receptors (Homo sapiens)
IC50: < 1 µM

molecule: O=C(c1cc2c(cn1)c(-c1coc3ccccc13)nn2CC(F)(F)F)N1CCC(F)(F)CC1 [Compound 225]
target or test system: human A2B receptors (Homo sapiens)
IC50: < 1 µM

Task: Sample O=C(c1cc2c(cn1)c(-c1c[nH]c3ccccc13)nn2CC(F)(F)F)N1[C@@H]2CC[C@H]1C[C@@H](O)C2 [Compound 112] — what was its IC50?
Output: < 0.1 µM

Task: Given O=C(c1cc2c(cn1)c(-c1ccc3ccccn13)nn2CC(F)(F)F)N1CCCCCC1 [Compound 52] , state its recorded IC50.
Output: < 1 µM

Task: What measured IC50 goes with O=C(c1cc2c(cn1)c(-c1c[nH]c3ncccc13)nn2CC(F)(F)F)N1CCCCCC1 [Compound 92] ?
Output: < 1 µM

Task: May I ask what IC50 has been recorded for O=C(c1cc2c(cn1)c(-n1cnc3ccc(F)cc31)nn2CC(F)(F)F)N1CCCOCC1 [Compound 252] ?
Output: < 0.1 µM

---

# maps each entry to its IC50
target or test system: human A2B receptors (Homo sapiens, UniProt P29275)
Construct: expressed in transfected cells; host or cells: HEK293
procedure details: Functional human A2B receptor activity, recombinant HEK293 cells, cAMP (HTRF)
Format: cell-based
condition parameters: read-out: A2B (Category)

Here's what some known entries look like.
compound: O=C(c1cc2c(cn1)c(-c1cnc3c(F)cc(F)cn13)nn2CC(F)(F)F)N1CCCS(=O)(=O)CC1
target or test system: human A2B receptors (Homo sapiens, UniProt P29275)
IC50: < 1000 nM
--
compound: O=C(c1cc2c(cn1)c(-c1coc3ccccc13)nn2CC(F)(F)F)N(C1CC1)C1CC1
target or test system: human A2B receptors (Homo sapiens, UniProt P29275)
IC50: < 1000 nM
--
compound: O=C(c1cc2c(cn1)c(-c1cnc3c(F)cc(F)cn13)nn2CC(F)(F)F)N1CCC(CO)CC1
target or test system: human A2B receptors (Homo sapiens, UniProt P29275)
IC50: < 1000 nM

Task: Looking for the measured IC50 of `Cc1oc2ccccc2c1-c1nn(CC(F)(F)F)c2cc(C(=O)N3CCCOCC3)ncc12` , can you help?
Output: < 1000 nM

Task: Any idea what its IC50 is? The compound is `O=C(c1cc2c(cn1)c(-n1cnc3ccccc31)nn2CC(F)(F)F)N1CCCOCC1`
Output: < 1000 nM

---

target or test system: human A2B receptors (Homo sapiens)
Construct: expressed in transfected cells; host or cells: HEK293
procedure details: Functional human A2B receptor activity, recombinant HEK293 cells, cAMP (HTRF)
Type: cell-based
condition parameters: read-out: A2B (Category)
In this section we review reported IC50 values for a set of compounds.

compound: O=C(c1cc2c(cn1)c(-c1coc3ccccc13)nn2CC(F)(F)F)N1CCCOCC1
measurement kind: IC50
reported result: < 100 nM
//
compound: CC1CC(O)CCN1C(=O)c1cc2c(cn1)c(-c1cnc3c(F)cc(F)cn13)nn2CC(F)(F)F (stereo not shown)
measurement kind: IC50
reported result: < 100 nM
//
compound: O=C(c1cc2c(cn1)c(-c1coc3ccccc13)nn2CC(F)(F)F)N1CCOCC(F)C1 (stereo not shown)
measurement kind: IC50
reported result: < 100 nM
//
compound: O=C(c1cc2c(cn1)c(-c1cnc3c(F)cc(F)cn13)nn2CC(F)(F)F)N1CCC2(CC1)COC2
measurement kind: IC50
reported result: < 1000 nM
//
compound: COCC1CCCN1C(=O)c1cc2c(cn1)c(-c1coc3ccccc13)nn2CC(F)(F)F (stereo not shown)
measurement kind: IC50
reported result: < 1000 nM

Task: Form entry - test system: human A2B receptors (Homo sapiens); read-out: IC50; compound: `O=C(c1cc2c(cn1)c(-c1cnc3c(F)cc(F)cn13)nn2CC(F)(F)F)N1CCC(F)(F)CC1`
Output: < 1000 nM

Task: Record lookup: for human A2B receptors (Homo sapiens), what IC50 belongs to `CS(=O)(=O)Cn1nc(-c2coc3ccccc23)c2cnc(C(=O)N3CCC(F)(F)CC3)cc21` ?
Output: < 1000 nM

---

Below, each of the compounds is paired with its reported IC50 value.
target or test system: human A2B receptors (Homo sapiens, UniProt P29275)
Construct: expressed in transfected cells; host or cells: HEK293
procedure details: Functional human A2B receptor activity, recombinant HEK293 cells, cAMP (HTRF)
Format: cell-based
condition parameters: read-out: A2B (Category)

Task: Recorded IC50 for N#CCn1nc(-c2coc3ccccc23)c2cnc(C(=O)N3CCCOCC3)cc21 [Compound 13] , please?
Output: < 1 µM

Task: # lookup: IC50 of CS(=O)(=O)Cn1nc(-c2cnc3c(F)cc(F)cn23)c2cnc(C(=O)N3CC4CCC(C4)C3)cc21 [Compound 23]
Output: < 0.1 µM

Task: What IC50 value was documented for this compound, O=C(c1cc2c(cn1)c(-c1cnc3c(F)cc(F)cn13)nn2CC(F)(F)F)N1CCC(O)C(F)(F)C1 (centres unmarked) [Compound 203] ?
Output: < 1 µM

Task: State the recorded IC50 for this entry: C#CC1(O)C2CCC1CN(C(=O)c1cc3c(cn1)c(-c1coc4ccccc14)nn3CC(F)(F)F)C2 (centres unmarked) [Compound 214]
Output: < 1 µM

Task: Entry NC(=O)c1ccc2occ(-c3nn(CC(F)(F)F)c4cc(C(=O)N5CCCOCC5)ncc34)c2c1 [Compound 237] : reported IC50 = ?
Output: < 1 µM

Task: I am curious: what IC50 value has been reported for O=C(c1cc2c(cn1)c(-c1cnc3ccc(Cl)cn13)nn2CC(F)(F)F)N1CCCCCC1 [Compound 48] ?
Output: < 1 µM

Task: Name the reported IC50 value associated with the compound CC1(C)CN(C(=O)c2cc3c(cn2)c(-c2cnc4c(F)cc(F)cn24)nn3CC(F)(F)F)CCCO1 [Compound 182]
Output: < 1 µM

Task: Need IC50, item CS(=O)(=O)Cn1nc(-c2coc3ccccc23)c2cnc(C(=O)N3CCOCC(F)(F)C3)cc21 [Compound 29]
Output: < 1 µM
